# TESTED ON: Insulin-like growth factor 1 receptor (Homo sapiens)
# Sequence (P08069 31-736 limits assumed): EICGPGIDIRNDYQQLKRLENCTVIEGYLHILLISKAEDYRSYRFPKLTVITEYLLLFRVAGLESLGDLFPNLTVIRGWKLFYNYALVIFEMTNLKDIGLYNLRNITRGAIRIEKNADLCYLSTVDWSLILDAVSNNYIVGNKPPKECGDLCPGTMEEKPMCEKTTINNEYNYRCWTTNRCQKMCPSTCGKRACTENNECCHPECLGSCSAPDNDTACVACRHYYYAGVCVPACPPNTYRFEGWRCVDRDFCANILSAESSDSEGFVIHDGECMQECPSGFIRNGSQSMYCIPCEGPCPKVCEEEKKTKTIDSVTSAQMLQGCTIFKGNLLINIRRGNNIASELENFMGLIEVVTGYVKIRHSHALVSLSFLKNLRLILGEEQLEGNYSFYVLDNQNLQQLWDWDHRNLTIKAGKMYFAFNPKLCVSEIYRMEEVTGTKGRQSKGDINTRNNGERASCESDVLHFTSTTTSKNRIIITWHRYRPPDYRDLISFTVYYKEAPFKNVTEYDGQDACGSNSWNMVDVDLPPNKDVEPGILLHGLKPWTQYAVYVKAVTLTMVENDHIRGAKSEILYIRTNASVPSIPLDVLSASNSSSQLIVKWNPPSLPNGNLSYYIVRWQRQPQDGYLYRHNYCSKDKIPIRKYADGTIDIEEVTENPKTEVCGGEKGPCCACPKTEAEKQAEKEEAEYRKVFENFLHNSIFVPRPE
# Sequence (P08069 741-1367 limits assumed): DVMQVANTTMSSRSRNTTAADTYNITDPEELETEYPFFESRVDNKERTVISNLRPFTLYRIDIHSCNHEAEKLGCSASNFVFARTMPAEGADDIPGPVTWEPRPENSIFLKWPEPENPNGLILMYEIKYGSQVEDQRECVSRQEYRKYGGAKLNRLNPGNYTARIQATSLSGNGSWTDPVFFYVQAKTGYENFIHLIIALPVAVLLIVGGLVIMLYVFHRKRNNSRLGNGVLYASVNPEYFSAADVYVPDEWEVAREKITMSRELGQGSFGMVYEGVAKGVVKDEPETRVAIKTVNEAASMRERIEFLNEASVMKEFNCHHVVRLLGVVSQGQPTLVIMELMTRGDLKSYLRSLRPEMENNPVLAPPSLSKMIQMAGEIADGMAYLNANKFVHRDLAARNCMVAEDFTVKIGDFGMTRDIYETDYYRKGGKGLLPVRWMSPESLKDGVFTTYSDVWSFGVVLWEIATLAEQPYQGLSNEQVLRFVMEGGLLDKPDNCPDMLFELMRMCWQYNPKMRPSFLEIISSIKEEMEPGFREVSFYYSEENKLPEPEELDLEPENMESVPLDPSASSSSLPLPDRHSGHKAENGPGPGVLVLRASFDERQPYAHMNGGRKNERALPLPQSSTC
# RUN DESCRIPTION: Inhibition of recombinant human GST-tagged IGF1R expressed in baculovirus infected Sf9 insect cells using poly (Glu,Tyr) 4:1 as substrate after 60 mins in presence of [gamma33P]ATP by scintillation counting method
MEASURED METRIC: Ki
Answer format: value, then unit.

Please review the entries below; each comes with its answer.
>>> df
                               query_smiles  result_value
0  O=[N+]([O-])c1ccc2oc3nccc(NCc4cccc(Cl)c4)c3c2c1       2850 nM
1       Nc1cccc(CNc2ccnc3oc4ccc(N)cc4c23)c1       8930 nM
2  O=[N+]([O-])c1ccc2oc3nccc(NCc4cccc(Br)c4)c3c2c1       2610 nM
3  O=[N+]([O-])c1ccc2[nH]c3nccc(NCc4cccc(Cl)c4)c3c2c1        280 nM
4  COc1ccc(CNc2ccnc3oc4ccc([N+](=O)[O-])cc4c23)cc1       3400 nM
5  O=[N+]([O-])c1ccc2oc3nccc(NCc4ccc(Br)cc4)c3c2c1       2870 nM
6      COc1cccc(CNc2ccnc3oc4ccc(N)cc4c23)c1        540 nM
7  O=[N+]([O-])c1ccc2[nH]c3nccc(NCc4cccc(Br)c4)c3c2c1        320 nM
8  O=[N+]([O-])c1cccc(CNc2ccnc3oc4ccc([N+](=O)[O-])cc4c23)c1       2390 nM
9  COc1cccc(CNc2ccnc3[nH]c4ccc([N+](=O)[O-])cc4c23)c1        890 nM

# input compound: `COc1cccc(CNc2ccnc3[nH]c4ccc(N)cc4c23)c1` ; wanted: its Ki 3560 nM

Param item: `COc1ccc(CNc2ccnc3oc4ccccc4c23)cc1` 1030 nM

###

# TESTED ON: UniProtKB P00533
# RUN DESCRIPTION: Inhibition of recombinant human GST-tagged wild-type EGFR expressed in baculovirus infected Sf9 insect cells using poly (Glu,Tyr) 4:1 as substrate after 60 mins in presence of [gamma33P]ATP by scintillation counting method
Threshold check on Ki: strictly below 900 nM is rule met; on or above 900 nM is rule not met.

Examples with answers:
                               query_smiles  category_label
0   COc1cccc(CNc2ccnc3[nH]c4ccc(N)cc4c23)c1        rule met
1  COc1ccc(CNc2ccnc3oc4ccc([N+](=O)[O-])cc4c23)cc1    rule not met
2  O=[N+]([O-])c1ccc2oc3nccc(NCc4ccc(Cl)cc4)c3c2c1    rule not met
3   Nc1ccc2[nH]c3nccc(NCc4cccc(Br)c4)c3c2c1        rule met
4  COc1cccc(CNc2ccnc3[nH]c4ccc([N+](=O)[O-])cc4c23)c1        rule met

Here is another compound to look at.
Please check: Ki for `Nc1cccc(CNc2ccnc3oc4ccc(N)cc4c23)c1` , strictly under 900 nM or not? rule not met

###

# TESTED ON: Epidermal growth factor receptor (Homo sapiens, UniProt P00533)
# Sequence (P00533 whole entry): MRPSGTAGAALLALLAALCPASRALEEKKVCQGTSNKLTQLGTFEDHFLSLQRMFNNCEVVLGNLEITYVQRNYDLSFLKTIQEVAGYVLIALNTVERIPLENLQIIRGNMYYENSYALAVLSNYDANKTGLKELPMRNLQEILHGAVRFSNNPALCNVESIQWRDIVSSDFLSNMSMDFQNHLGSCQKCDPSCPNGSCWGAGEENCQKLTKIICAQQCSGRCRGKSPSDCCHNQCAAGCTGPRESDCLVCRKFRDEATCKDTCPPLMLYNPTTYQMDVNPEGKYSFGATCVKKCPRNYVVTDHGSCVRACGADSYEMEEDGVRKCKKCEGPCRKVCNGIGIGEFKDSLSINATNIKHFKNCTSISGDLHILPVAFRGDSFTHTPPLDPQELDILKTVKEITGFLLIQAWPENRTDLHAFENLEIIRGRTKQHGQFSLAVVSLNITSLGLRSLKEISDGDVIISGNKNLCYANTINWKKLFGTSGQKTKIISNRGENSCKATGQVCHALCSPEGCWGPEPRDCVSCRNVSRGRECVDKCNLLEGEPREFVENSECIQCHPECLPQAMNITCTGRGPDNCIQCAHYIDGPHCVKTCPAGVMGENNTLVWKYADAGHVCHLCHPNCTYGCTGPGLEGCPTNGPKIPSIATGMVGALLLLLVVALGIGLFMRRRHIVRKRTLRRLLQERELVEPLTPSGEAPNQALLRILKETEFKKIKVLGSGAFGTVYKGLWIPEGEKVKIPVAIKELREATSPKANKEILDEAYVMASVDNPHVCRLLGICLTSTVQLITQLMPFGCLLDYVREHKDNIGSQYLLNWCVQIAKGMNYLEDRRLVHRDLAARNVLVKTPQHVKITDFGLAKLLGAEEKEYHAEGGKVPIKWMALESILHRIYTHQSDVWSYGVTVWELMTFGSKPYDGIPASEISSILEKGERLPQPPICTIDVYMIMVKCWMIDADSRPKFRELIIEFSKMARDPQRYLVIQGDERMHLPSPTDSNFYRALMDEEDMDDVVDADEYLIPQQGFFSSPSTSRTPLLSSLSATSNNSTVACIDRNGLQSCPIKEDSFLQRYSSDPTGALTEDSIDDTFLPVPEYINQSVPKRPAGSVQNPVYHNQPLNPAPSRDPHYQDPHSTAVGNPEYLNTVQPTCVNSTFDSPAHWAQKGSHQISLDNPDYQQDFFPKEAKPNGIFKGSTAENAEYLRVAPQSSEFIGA
# RUN DESCRIPTION: Inhibition of recombinant human GST-tagged wild-type EGFR expressed in baculovirus infected Sf9 insect cells using poly (Glu,Tyr) 4:1 as substrate after 60 mins in presence of [gamma33P]ATP by scintillation counting method
Here the recorded Ki is given for each entry.
Answer format: value, then unit.

# input molecule: `O=[N+]([O-])c1cccc(CNc2ccnc3oc4ccc([N+](=O)[O-])cc4c23)c1` ; wanted: its Ki 930 nM

Param item: `O=[N+]([O-])c1ccc2oc3nccc(NCc4ccc(Br)cc4)c3c2c1` 810 nM

Param item: `Nc1ccc2[nH]c3nccc(NCc4cccc(Cl)c4)c3c2c1` 140 nM
